The reported numbers originate from the supplement of paper PMC10307832.

Test system: NCI-H1299
Experiment: relative viability (nuclei count vs DMSO), 5 days (fraction); higher = more cells survive
Settings: first compound 0.01581 µM
This section presents compounds with their documented relative viability values.
# respond with the number and nothing more

Examples with answers:
>  <COMPOUND>
COc1cc2nccc(Oc3ccc(NC(=O)Nc4cc(C)on4)c(Cl)c3)c2cc1OC [Tivozanib] + CC1(C)CCC(c2ccc(Cl)cc2)=C(CN2CCN(c3ccc(C(=O)NS(=O)(=O)c4ccc(N[C@H](CCN5CCOCC5)CSc5ccccc5)c(S(=O)(=O)C(F)(F)F)c4)cc3)CC2)C1 [Navitoclax] (partner 0.5 µM)

>  <relative viability>
1.07

$$$$
>  <COMPOUND>
COc1cc2nccc(Oc3ccc(NC(=O)Nc4cc(C)on4)c(Cl)c3)c2cc1OC [Tivozanib] + C[C@@H](Oc1cc(-c2cnn(C3CCNCC3)c2)cnc1N)c1c(Cl)ccc(F)c1Cl [Crizotinib] (partner 1 µM)

>  <relative viability>
0.971

$$$$
>  <COMPOUND>
Nc1ccn([C@@H]2O[C@H](CO)[C@@H](O)[C@@H]2O)c(=O)n1 [Cytarabine] + CC1(C)CCC(c2ccc(Cl)cc2)=C(CN2CCN(c3ccc(C(=O)NS(=O)(=O)c4ccc(N[C@H](CCN5CCOCC5)CSc5ccccc5)c(S(=O)(=O)C(F)(F)F)c4)cc3)CC2)C1 [Navitoclax] (partner 0.5 µM)

>  <relative viability>
1.13

$$$$
>  <COMPOUND>
Nc1ccn([C@@H]2O[C@H](CO)[C@@H](O)[C@@H]2O)c(=O)n1 [Cytarabine] + COc1cc2c(Oc3ccc(NC(=O)C4(C(=O)Nc5ccc(F)cc5)CC4)cc3F)ccnc2cc1OCCCN1CCOCC1 [Foretinib] (partner 0.25 µM)

>  <relative viability>
1.13

$$$$
>  <COMPOUND>
Nc1ccn([C@@H]2O[C@H](CO)[C@@H](O)[C@@H]2O)c(=O)n1 [Cytarabine] + CC(C)C[C@H](NC(=O)[C@H](Cc1ccccc1)NC(=O)c1cnccn1)B(O)O [Bortezomib] (partner 0.002 µM)

>  <relative viability>
1.09

$$$$

Lookup: // fetch NCI-H1299 relative viability for COc1cc2nccc(Oc3ccc(NC(=O)Nc4cc(C)on4)c(Cl)c3)c2cc1OC [Tivozanib] + CS(=O)(=O)CCNCc1ccc(-c2ccc3ncnc(Nc4ccc(OCc5cccc(F)c5)c(Cl)c4)c3c2)o1 [Lapatinib] (partner 2 µM)
Found: 1.03

* * *

System: LXF-289
Assay: relative viability (nuclei count vs DMSO), 5 days (fraction); higher = more cells survive
Details: first compound 0.0002 µM
OBSERVATION TYPE: relative viability
# respond with the number and nothing more

>  <MOLECULE>
CC(=O)O[C@@]12CO[C@@H]1C[C@H](O)[C@@]1(C)C(=O)[C@H](O)C3=C(C)[C@@H](OC(=O)[C@H](O)[C@@H](NC(=O)OC(C)(C)C)c4ccccc4)C[C@@](O)([C@@H](OC(=O)c4ccccc4)[C@H]21)C3(C)C [Docetaxel] + Cc1nc(Nc2ncc(C(=O)Nc3c(C)cccc3Cl)s2)cc(N2CCN(CCO)CC2)n1 [Dasatinib] (partner 0.075 µM)

>  <relative viability>
0.181

$$$$

Lookup: // lookup relative viability for CC(=O)O[C@@]12CO[C@@H]1C[C@H](O)[C@@]1(C)C(=O)[C@H](O)C3=C(C)[C@@H](OC(=O)[C@H](O)[C@@H](NC(=O)OC(C)(C)C)c4ccccc4)C[C@@](O)([C@@H](OC(=O)c4ccccc4)[C@H]21)C3(C)C [Docetaxel] + C[C@@H](Oc1cc(-c2cnn(C3CCNCC3)c2)cnc1N)c1c(Cl)ccc(F)c1Cl [Crizotinib] (partner 1 µM)
Found: 0.819

* * *

This section presents compounds with their documented relative viability values.
Tested on: SW 900
Assay: relative viability (nuclei count vs DMSO), 5 days (fraction); higher = more cells survive
Conditions: first compound 2.53 µM

Examples with answers:
>  <COMPOUND>
Cc1cnc(-c2cnc(NCCNc3ccc(C#N)cn3)nc2-c2ccc(Cl)cc2Cl)[nH]1 + O=C(CCCCCCC(=O)Nc1ccccc1)NO [Vorinostat] (partner 1 µM)

>  <relative viability>
0.472

$$$$
>  <COMPOUND>
Cc1cnc(-c2cnc(NCCNc3ccc(C#N)cn3)nc2-c2ccc(Cl)cc2Cl)[nH]1 + Nc1ncn([C@H]2C[C@H](O)[C@@H](CO)O2)c(=O)n1 [Decitabine] (partner 2 µM)

>  <relative viability>
0.393

$$$$

Lookup: // lookup relative viability for Cc1cnc(-c2cnc(NCCNc3ccc(C#N)cn3)nc2-c2ccc(Cl)cc2Cl)[nH]1 + CC(=O)c1c(C)c2cnc(Nc3ccc(N4CCNCC4)cn3)nc2n(C2CCCC2)c1=O [Palbociclib] (partner 0.5 µM)
Found: 0.515

* * *

Test system: NCI-H1755
Test: relative viability (nuclei count vs DMSO), 5 days (fraction); higher = more cells survive
Settings: first compound 4 µM
This section presents molecules with their documented relative viability values.

>  <MOLECULE>
Cc1sc2c(c1C)C(c1ccc(Cl)cc1)=N[C@@H](CC(=O)OC(C)(C)C)c1nnc(C)n1-2 [JQ1] + O=C(c1cc(Cc2n[nH]c(=O)c3ccccc23)ccc1F)N1CCN(C(=O)C2CC2)CC1 [Olaparib] (partner 8 µM)

>  <relative viability>
0.611

$$$$
>  <MOLECULE>
Cc1sc2c(c1C)C(c1ccc(Cl)cc1)=N[C@@H](CC(=O)OC(C)(C)C)c1nnc(C)n1-2 [JQ1] + CCNC(=O)c1noc(-c2cc(C(C)C)c(O)cc2O)c1-c1ccc(CN2CCOCC2)cc1 [Luminespib] (partner 0.01 µM)

>  <relative viability>
0.442

$$$$
>  <MOLECULE>
Cc1sc2c(c1C)C(c1ccc(Cl)cc1)=N[C@@H](CC(=O)OC(C)(C)C)c1nnc(C)n1-2 [JQ1] + CC(=O)c1c(C)c2cnc(Nc3ccc(N4CCNCC4)cn3)nc2n(C2CCCC2)c1=O [Palbociclib] (partner 0.5 µM)

>  <relative viability>
0.353

$$$$

Okay, next one:
Lookup: // lookup relative viability for Cc1sc2c(c1C)C(c1ccc(Cl)cc1)=N[C@@H](CC(=O)OC(C)(C)C)c1nnc(C)n1-2 [JQ1] + Nc1nc2[nH]cc(CCc3ccc(C(=O)N[C@@H](CCC(=O)O)C(=O)O)cc3)c2c(=O)[nH]1 [Pemetrexed] (partner 0.2 µM)
Found: 0.324

* * *

System: NCI-H2347
Experiment: relative viability (nuclei count vs DMSO), 5 days (fraction); higher = more cells survive
Conditions: first compound 0.05 µM
OBSERVATION TYPE: relative viability
# respond with the number and nothing more

Examples with answers:
>  <COMPOUND>
Nc1ccn([C@@H]2O[C@H](CO)[C@@H](O)[C@@H]2O)c(=O)n1 [Cytarabine] + CC(=O)Nc1cccc(-n2c(=O)n(C3CC3)c(=O)c3c(Nc4ccc(I)cc4F)n(C)c(=O)c(C)c32)c1 [Trametinib] (partner 0.02 µM)

>  <MEASURED>
0.282

$$$$
>  <COMPOUND>
Nc1ccn([C@@H]2O[C@H](CO)[C@@H](O)[C@@H]2O)c(=O)n1 [Cytarabine] + COc1cccc2cc(-c3nc([C@H]4CC[C@H](C(=O)O)CC4)n4ncnc(N)c34)[nH]c12 [OSI-027] (partner 0.5 µM)

>  <MEASURED>
0.336

$$$$
>  <COMPOUND>
COc1cc2nccc(Oc3ccc(NC(=O)Nc4cc(C)on4)c(Cl)c3)c2cc1OC [Tivozanib] + CS(=O)(=O)N1CCN(Cc2cc3nc(-c4cccc5[nH]ncc45)nc(N4CCOCC4)c3s2)CC1 [Pictilisib] (partner 1 µM)

>  <MEASURED>
0.846

$$$$

Okay, next one:
Lookup: // lookup relative viability for COc1cc2nccc(Oc3ccc(NC(=O)Nc4cc(C)on4)c(Cl)c3)c2cc1OC [Tivozanib] + Cc1nc(Nc2ncc(C(=O)Nc3c(C)cccc3Cl)s2)cc(N2CCN(CCO)CC2)n1 [Dasatinib] (partner 0.075 µM)
Found: 0.294

* * *

Tested on: COR-L 105
Assay: relative viability (nuclei count vs DMSO), 5 days (fraction); higher = more cells survive
Settings: first compound 500 µM
OBSERVATION TYPE: relative viability
# respond with the number and nothing more

Examples with answers:
>  <COMPOUND>
O=C(O)CCCCC(CCSCc1ccccc1)SCc1ccccc1 (stereo not given) [CPI-613] + CC(=O)Nc1cccc(-n2c(=O)n(C3CC3)c(=O)c3c(Nc4ccc(I)cc4F)n(C)c(=O)c(C)c32)c1 [Trametinib] (partner 0.02 µM)

>  <MEASURED>
0.225

$$$$
>  <COMPOUND>
O=C(O)CCCCC(CCSCc1ccccc1)SCc1ccccc1 (stereo not given) [CPI-613] + Nc1ncn([C@H]2C[C@H](O)[C@@H](CO)O2)c(=O)n1 [Decitabine] (partner 2 µM)

>  <MEASURED>
0.22

$$$$
>  <COMPOUND>
O=C(O)CCCCC(CCSCc1ccccc1)SCc1ccccc1 (stereo not given) [CPI-613] + C[C@]1(O)C[C@@H](c2nc(-c3ccc4ccc(-c5ccccc5)nc4c3)c3c(N)nccn32)C1 [Linsitinib] (partner 1 µM)

>  <MEASURED>
0.181

$$$$
>  <COMPOUND>
O=C(O)CCCCC(CCSCc1ccccc1)SCc1ccccc1 (stereo not given) [CPI-613] + CS(=O)(=O)N1CCN(Cc2cc3nc(-c4cccc5[nH]ncc45)nc(N4CCOCC4)c3s2)CC1 [Pictilisib] (partner 1 µM)

>  <MEASURED>
0.288

$$$$

Okay, next one:
Lookup: // fetch COR-L 105 relative viability for O=C(O)CCCCC(CCSCc1ccccc1)SCc1ccccc1 (stereo not given) [CPI-613] + COc1cccc2cc(-c3nc([C@H]4CC[C@H](C(=O)O)CC4)n4ncnc(N)c34)[nH]c12 [OSI-027] (partner 0.5 µM)
Found: 0.105
